Assay: qHTS assay to identify small molecule agonists of the sonic hedgehog signaling (Shh) pathway - cell viability counter screen (AID 1259366); also: nearly all actives have a fitted effect of over 50% in size
Conditions: NIH/3T3 Gli1-Luc viability, CellTiter-Fluor, 24 h; series mostly up to 92.4 µM
Records with an inconclusive call do not appear. Active and inactive are the calls of the source. Calls follow the shape of the dose curve; as a rule, active = well fitted cell-killing curve with a large enough effect in the repeat runs; inconclusive = weak or mixed curves, or effect the other way; inactive = flat fitted curve, though single readings scatter.
Bench note: report the call from active, inactive

Past entries and their recorded results:
{"Compound": "C=CCC1=C(C)C(OC(=O)C2C(C=C(C)C)C2(C)C)CC1=O (stereo unspecified)", "Class Label": "inactive"}
{"Compound": "CCOP(=S)(OCC)OC(Cl)C(Cl)(Cl)Cl (stereo unspecified)", "Class Label": "inactive"}
{"Compound": "CN(CCCC(O)c1cccnc1)N=O (stereo unspecified)", "Class Label": "inactive"}

Now for a further compound.
Qu. GET /call?item= Cc1cccc(OP(=O)(Oc2cccc(C)c2)Oc2cccc(C)c2)c1 returns the recorded outcome of this test.
Ans. inactive

Taken from PubChem BioAssay (Tox21).
